Examples of molecules with documented Inhibition follow.
system: Cryptococcus neoformans; settings: Concentration 32 ug.mL-1; ASSAY_TEST Inhibition of Fungal Growth; detection method Resazurin; Absorption (OD600-OD570); plate type 384well; NBS; CORNING #3640
Description: Antifungal activity against Cryptococcus neoformans H99 ATCC 208821 (CO-ADD:FG_002); MIC in YNB media using NBS plates, by Resazurin OD(600-570)
Measured potencies and affinities stand elsewhere.
Dear colleague, please return just the value in %, with no unit written.

QUERY: Data request, read-out Inhibition, for COC(=O)c1ccc(NC(=O)Cn2nc3c(N4CCOCC4)nccn3c2=O)cc1
RESULT: -14.01

QUERY: Data request, read-out Inhibition, for CCOC(=O)N1CCN(C(=O)CCc2nnc3c4cc(-c5ccccc5)nn4ccn23)CC1
RESULT: -14.62

QUERY: Data request, read-out Inhibition, for COc1ccc(NC(=O)Cn2nc3c(N4CCCC4)nccn3c2=O)cc1Cl
RESULT: -15.33

QUERY: Data request, read-out Inhibition, for CCc1nnc2c(SCC(=O)Nc3ccc(OC)c(Cl)c3)nc3ccccc3n12
RESULT: -21.55

QUERY: Data request, read-out Inhibition, for O=c1n(Cc2cccc(C(F)(F)F)c2)nc2c(S(=O)(=O)N3CCCCCC3)cccn12
RESULT: -9.24

QUERY: Data request, read-out Inhibition, for COc1ccc(N(Cc2ccc(Cl)cc2)S(=O)(=O)c2ccc3nncn3c2)cc1
RESULT: -7.19

QUERY: Data request, read-out Inhibition, for O=C(Cn1nc2c(Oc3ccccc3)nccn2c1=O)Nc1cc(F)ccc1F
RESULT: -9.47

QUERY: Data request, read-out Inhibition, for Cc1oc(-c2cccc(Cl)c2)nc1CSc1nc2ccccc2n2c(C)nnc12
RESULT: -6.37

QUERY: Data request, read-out Inhibition, for CCOc1ccccc1NC(=O)Cn1nc2c(SC3CCCCC3)nccn2c1=O
RESULT: -21.42

QUERY: Data request, read-out Inhibition, for CCOc1ccc(-n2ccn3c(SCC(=O)c4cccc(OC)c4)nnc3c2=O)cc1
RESULT: -9.06

QUERY: Data request, read-out Inhibition, for Cc1ccc(Oc2nccn3c(=O)n(CC(=O)Nc4ccc(C)cc4Br)nc23)cc1
RESULT: -4.1
